System: T. vaginalis GT3 strain
protocol.summary: In vitro susceptibility assay, T. vaginalis trophozoites
Assay type: cell-based, Trichomonas vaginalis
settings: Trichomonas vaginalis, GT3, 48 h, read-out: T. vaginalis (IC50 nM), trophozoites, 48 h at 37 °C, subcultured 48 h, Probit analysis
Each entry belongs to exactly one class, chosen by where its IC50 falls: 0 (below 100 nM), 1 (100 nM to below 200 nM), 2 (200 nM or more)

A selection of reference data follows.
CC(C)COC(=O)c1ccc2c(c1)[n+]([O-])c(C(=O)c1ccc3ccccc3c1)c(C(F)(F)F)[n+]2[O-] : 0
CC(=O)c1c(C)[n+]([O-])c2ccc(C(=O)OCC(C)C)cc2[n+]1[O-] : 1

Which IC50 category applies to CC(C)COC(=O)c1ccc2c(c1)[n+]([O-])c(C(=O)Nc1ccccc1)c(-c1ccccc1)[n+]2[O-] here? 1

Which IC50 category applies to COC(=O)c1c(C)[n+]([O-])c2ccc(C(=O)OCC(C)C)cc2[n+]1[O-] here? 2

Which IC50 category applies to Cc1ccc(NC(=O)c2c(C)[n+]([O-])c3ccc(C(=O)OCC(C)C)cc3[n+]2[O-])c(C)c1 here? 1

Which IC50 category applies to CC(=O)c1c(C(F)(F)F)[n+]([O-])c2ccc(C(=O)OCC(C)C)cc2[n+]1[O-] here? 0

Which IC50 category applies to CCCCOC(=O)c1ccc2c(c1)[n+]([O-])c(C(=O)Nc1ccc(Cl)cc1)c(C)[n+]2[O-] here? 0

Which IC50 category applies to CCCCOC(=O)c1ccc2c(c1)[n+]([O-])c(C(=O)OC)c(C)[n+]2[O-] here? 0

Which IC50 category applies to CC(=O)c1c(-c2ccccc2)[n+]([O-])c2ccc(C(=O)OCC(C)C)cc2[n+]1[O-] here? 1

Which IC50 category applies to CCCCOC(=O)c1ccc2c(c1)[n+]([O-])c(C(=O)c1ccccc1)c(C)[n+]2[O-] here? 0

Which IC50 category applies to CCCSc1ccc2nc(NC(=O)OC)[nH]c2c1 [Albendazole, reference compound] here? 2

Which IC50 category applies to CC(=O)c1c(Nc2ccc(C)cc2C)[n+]([O-])c2ccc(C(=O)OCC(C)C)cc2[n+]1[O-] here? 1

Which IC50 category applies to Cc1c(C(=O)Nc2ccc(Cl)cc2)[n+]([O-])c2cc(C(=O)OCC(C)C)ccc2[n+]1[O-] here? 1

Which IC50 category applies to CCCCOC(=O)c1ccc2c(c1)[n+]([O-])c(C(=O)c1ccccc1)c(C(F)(F)F)[n+]2[O-] here? 0

Which IC50 category applies to CC(C)COC(=O)c1ccc2c(c1)[n+]([O-])c(C(=O)c1cccs1)c(C(F)(F)F)[n+]2[O-] here? 1

----------
System: murine macrophage cell line J774.2
protocol.summary: Cytotoxic evaluation, MTT colorimetric assay
Assay type: cell-based
settings: murine macrophages J774.2, read-out: Cytotoxicity (Macrophages J774.2) (CC50)
# class 1 = CC50 below 50 µM (exclusive); class 0 = CC50 at/above 50 µM

A selection of reference data follows.
CCCCOC(=O)c1ccc2c(c1)[n+]([O-])c(C(=O)c1ccccc1)c(C(F)(F)F)[n+]2[O-] : class 1
CCCCOC(=O)c1ccc2c(c1)[n+]([O-])c(C(=O)c1ccccc1)c(C)[n+]2[O-] : class 1
CCCCOC(=O)c1ccc2c(c1)[n+]([O-])c(C(C)=O)c(C)[n+]2[O-] : class 0
CC(C)COC(=O)c1ccc2c(c1)[n+]([O-])c(C(=O)c1cccs1)c(C(F)(F)F)[n+]2[O-] : class 1
CCCCOC(=O)c1ccc2c(c1)[n+]([O-])c(C(=O)OC(C)(C)C)c(C)[n+]2[O-] : class 0

Bench note: check whether CCCCOC(=O)c1ccc2c(c1)[n+]([O-])c(C(=O)OC)c(C)[n+]2[O-] shows CC50 below 50 µM class 1

Bench note: check whether CCCCOC(=O)c1ccc2c(c1)[n+]([O-])c(C(=O)OCC)c(C(F)(F)F)[n+]2[O-] shows CC50 below 50 µM class 0

Bench note: check whether Cc1c(C(=O)c2ccccc2)[n+]([O-])c2cc(C(=O)OCC(C)C)ccc2[n+]1[O-] shows CC50 below 50 µM class 1

----------
system.name: recombinant GlTIM (Giardia intestinalis)
Construct: His-tag with TEV site (pET3a-HisTEV); made in house; host or cells: Escherichia coli BL21(DE3) pLys
Sequence (P36186 whole entry): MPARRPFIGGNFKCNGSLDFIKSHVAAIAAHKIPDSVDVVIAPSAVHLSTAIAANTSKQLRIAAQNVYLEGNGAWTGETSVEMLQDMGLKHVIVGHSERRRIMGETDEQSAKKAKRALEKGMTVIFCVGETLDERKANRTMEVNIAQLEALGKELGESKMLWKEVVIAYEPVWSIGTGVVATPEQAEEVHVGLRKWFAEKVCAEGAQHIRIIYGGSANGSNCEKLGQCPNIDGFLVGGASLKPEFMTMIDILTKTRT
protocol.summary: Inhibition of recombinant GlTIM enzyme activity
Type: biochemical, Giardia lamblia
settings: 500 µM compound, 2 h at 37 °C
inhibition at 500 µM listing for selected molecules.
// units = %; emit number, no label

Solved cases (3 shown):
CCCCOC(=O)c1ccc2c(c1)[n+]([O-])c(C(=O)OCC)c(C(F)(F)F)[n+]2[O-] : 37.3
CC(=O)c1c(C(F)(F)F)[n+]([O-])c2ccc(C(=O)OCC(C)C)cc2[n+]1[O-] : 99.7
CCCCOC(=O)c1ccc2c(c1)[n+]([O-])c(C(=O)Nc1ccc(Cl)cc1)c(C)[n+]2[O-] : 43.7

Please report the measured inhibition at 500 µM for Cc1c(C(=O)Nc2ccc(Cl)cc2)[n+]([O-])c2cc(C(=O)OCC(C)C)ccc2[n+]1[O-] 19.7

----------
system.name: recombinant E. histolytica thioredoxin reductase (EhTRXR) (Entamoeba histolytica, UniProt C4LW95)
Construct: His-tag (pET28a) (N); made in house; host or cells: E. coli BL21 (DE3)
Sequence (C4LW95 1-314): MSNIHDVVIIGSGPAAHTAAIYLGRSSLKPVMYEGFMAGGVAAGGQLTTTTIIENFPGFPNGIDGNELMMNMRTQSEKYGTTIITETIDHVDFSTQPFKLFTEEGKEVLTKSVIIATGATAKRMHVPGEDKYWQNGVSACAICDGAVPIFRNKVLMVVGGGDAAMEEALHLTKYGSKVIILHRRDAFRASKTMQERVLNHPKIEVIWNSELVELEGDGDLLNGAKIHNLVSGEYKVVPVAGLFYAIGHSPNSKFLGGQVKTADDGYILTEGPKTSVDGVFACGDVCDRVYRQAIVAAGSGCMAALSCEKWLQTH
protocol.summary: Inhibition of EhTrxR DTNB reductase activity
Type: biochemical
settings: DTNB reductase activity, 30 °C, pH 7.0
Experimental: Recombinant E. histolytica thioredoxin reductase (EhTRXR) was expressed in E. coli BL21 (DE3) as His-tag (N-terminal) recombinant proteins using pET28a vector, and it was purified using IMAC as previously described. 5,5′-Dithiobis(2-nitrobenzoic acid) (DTNB) reductase activity was measured by monitoring the production of thionitrobenzoate at 405 nm in a reaction mixture comprising 50 mM potassium phosphate, pH 7.0, 2 mM EDTA, 300 µM NADPH, 5 mM DTNB, and 0.1 µM EhTRXR. […]
reported.endpoint: IC50 (µM)
// units = µM; emit number, no label

CCCCOC(=O)c1ccc2c(c1)[n+]([O-])c(C(C)=O)c(C(F)(F)F)[n+]2[O-] : 16

Please report the measured IC50 for Cc1c(C(=O)Nc2ccc(Cl)cc2)[n+]([O-])c2cc(C(=O)OCC(C)C)ccc2[n+]1[O-] 18

----------
Tested on: E. histolytica strain HM1-IMSS
protocol.summary: In vitro susceptibility assay, E. histolytica trophozoites
Format: cell-based, Entamoeba histolytica
settings: read-out: E. histolytica (IC50 nM); trophozoites, 48 h at 37 °C, subcultured 48 h, Probit analysis
IC50 listing for selected compounds.

CCCCOC(=O)c1ccc2c(c1)[n+]([O-])c(C(=O)OCc1ccccc1)c(C)[n+]2[O-] : 40.2 nM
CCCCOC(=O)c1ccc2c(c1)[n+]([O-])c(C(=O)OC)c(C)[n+]2[O-] : 40.4 nM
CCCCOC(=O)c1ccc2c(c1)[n+]([O-])c(C(=O)OCC)c(C)[n+]2[O-] : 34.5 nM

Here is another compound to look at.
Please report the measured IC50 for CCCCOC(=O)c1ccc2c(c1)[n+]([O-])c(C(=O)OC(C)(C)C)c(C)[n+]2[O-] 29.2 nM

----------
System: T. vaginalis GT3 strain
protocol.summary: In vitro susceptibility assay, T. vaginalis trophozoites
Type: cell-based, Trichomonas vaginalis
settings: Trichomonas vaginalis, GT3, 48 h, read-out: T. vaginalis (IC50 nM), trophozoites, 48 h at 37 °C, subcultured 48 h, Probit analysis
Description: G. lamblia WB strain, T. vaginalis GT3 strain, and E. histolytica strain HM1-IMSS were used in all experiments, all parasitic strains were obtained from the Unidad de Investigación Médica en Enfermedades Infecciosas y Parasitarias, Hospital de Pediatría, Instituto Mexicano del Seguro Social. In vitro susceptibility assays to determine IC50 values were performed using a method previously described. […] Then, trophozoites were counted with a haemocytometer and the IC50 was calculated by Probit analysis. […]
IC50 listing for selected compounds.
// units = nM; emit number, no label

Solved cases (5 shown):
CCCCOC(=O)c1ccc2c(c1)[n+]([O-])c(C(=O)c1ccc3ccccc3c1)c(C(F)(F)F)[n+]2[O-] [Compound T-150] : 124
CCCCOC(=O)c1ccc2c(c1)[n+]([O-])c(C(C)=O)c(C(F)(F)F)[n+]2[O-] [Compound T-145] : 108
CCCCOC(=O)c1ccc2c(c1)[n+]([O-])c(C(=O)c1cccs1)c(C(F)(F)F)[n+]2[O-] [Compound T-149] : 97.7
CCCCOC(=O)c1ccc2c(c1)[n+]([O-])c(C(=O)OCc1ccccc1)c(C)[n+]2[O-] [Compound T-141] : 166
Cc1c(C(=O)c2ccccc2)[n+]([O-])c2cc(C(=O)OCC(C)C)ccc2[n+]1[O-] [Compound T-157] : 153

Here is another compound to look at.
GET IC50 | system: T. vaginalis GT3 strain | item: Cc1ncc([N+](=O)[O-])n1CCO [Metronidazole, reference compound] 210
